All figures here come from patent US9540361B2.

# EXPERIMENTAL TARGET: estrogen receptor alpha (Homo sapiens)
# Construct: endogenous in cells; host or cells: T47D human breast cancer cells (ATCC)
# PROTOCOL SUMMARY: ERα downregulation assay in T47D breast cancer cells (ERα ELISA)
# Type: cell-based
# MEASUREMENT CONTEXT: downregulation of ERα relative to fulvestrant (100%), 1E-5 M, 24 hours, negative = upregulation
# reported DR (%); entries follow

MOLECULE	EXPERIMENTAL TARGET	DR (%)
CCCN1CC(Oc2ccc(C(=O)c3c(-c4ccc(O)c(C)c4)sc4cc(O)ccc34)cc2)C1.Cl	estrogen receptor alpha (Homo sapiens)	94
CCN1CC(Oc2ccc(C(=O)c3c(-c4ccc(O)cc4)sc4cc(O)ccc34)cc2)C1.O=C(O)C(F)(F)F	estrogen receptor alpha (Homo sapiens)	46
CCCN1CC(Oc2ccc(Cc3c(-c4ccccc4)c(=O)oc4cc(OC)ccc34)cc2)C1	estrogen receptor alpha (Homo sapiens)	33
CCCN1CC(Oc2ccc(C(=O)c3c(-c4cccn4C)noc3-c3ccc(O)cc3)cc2)C1.Cl	estrogen receptor alpha (Homo sapiens)	100
Cl.Oc1ccc(-c2onc(-c3ccccc3Cl)c2-c2ccc(OC3CN(CC4CCOC4)C3)cc2)cc1 (centres unmarked)	estrogen receptor alpha (Homo sapiens)	66
Cl.Oc1ccc(-c2onc(-c3ccccc3Cl)c2-c2ccc(OC3CN(CC4CC4)C3)cc2)cc1	estrogen receptor alpha (Homo sapiens)	57
CCCN1CC(Oc2ccc(C(=O)c3c(-c4cccs4)sc4cc(O)ccc34)cc2)C1.Cl	estrogen receptor alpha (Homo sapiens)	88
CCCN1CC(Oc2ccc(C(=O)c3c(-c4ccccc4)noc3-c3ccc(O)cc3)cc2)C1.Cl	estrogen receptor alpha (Homo sapiens)	96

* * *

# EXPERIMENTAL TARGET: human estrogen receptor α (hERα) (Homo sapiens)
# PROTOCOL SUMMARY: antagonistic activity in CHO cells co-transfected with hERα, rat oxytocin promoter and luciferase reporter gene
# Assay type: cell-based
# MEASUREMENT CONTEXT: antagonism of 17β-estradiol-induced transactivation, CHO-hERα-RO-LUC; read-out: ERα pIC50 (converted)
Counter-ions that a name gives are not always drawn.

COMPOUND	EXPERIMENTAL TARGET	READOUT UNITS	IC50
CCCN1CC(Oc2ccc(C(=O)c3c(-c4ccccc4Cl)noc3-c3cc[nH]c3)cc2)C1.O=C(O)C(F)(F)F [compound 7aq, 2,2,2-trifluoroacetate]	human estrogen receptor α (hERα) (Homo sapiens)	nM	25.1
CCCN1CC(Oc2ccc(C(=C(CC)c3ccccc3)c3cccc(O)c3)cc2)C1 (mixture of isomers)	human estrogen receptor α (hERα) (Homo sapiens)	nM	5.01
CCCN1CC(Oc2ccc(C(=C(CC)c3ccccc3)c3ccccc3)cc2)C1.O=C(O)C(F)(F)F [compound 6u, 2,2,2-trifluoroacetate]	human estrogen receptor α (hERα) (Homo sapiens)	nM	31.6
CCCN1CC(Oc2ccc(C(=O)c3c(-c4ccccc4Cl)noc3-c3ccc(N)cc3)cc2)C1.O=C(O)C(F)(F)F [compound 7ar, 2,2,2-trifluoroacetate]	human estrogen receptor α (hERα) (Homo sapiens)	nM	20
CCCN1CC(Oc2ccc(-c3c(-c4ccccc4Cl)noc3-c3ccc(O)cc3)cc2)C1	human estrogen receptor α (hERα) (Homo sapiens)	nM	0.251
CCCN1CC(Oc2ccc(Cc3c(-c4ccccc4)c(=O)oc4cc(O)ccc34)cc2)C1 [compound 6r, 2,2,2-trifluoroacetate]	human estrogen receptor α (hERα) (Homo sapiens)	nM	1.58
CCCN1CC(Oc2ccc(-c3c(-c4c(C)noc4C)noc3-c3ccc(O)cc3)cc2)C1.Cl [compound 7af, hydrochloride]	human estrogen receptor α (hERα) (Homo sapiens)	nM	3.16
CCCN1CC(Oc2ccc([C@@H]3c4ccc(O)cc4CC[C@@H]3c3ccccc3)cc2)C1.Cl [compound 6q, hydrochloride]	human estrogen receptor α (hERα) (Homo sapiens)	nM	0.251
CCCN1CC(Oc2ccc(C(=O)c3c(-c4cccc(O)c4)noc3-c3ccccc3F)cc2)C1.Cl [compound 7ba, hydrochloride]	human estrogen receptor α (hERα) (Homo sapiens)	nM	15.8
CCCN1CC(Oc2ccc(C(=O)c3c(-c4ccc(O)cc4)noc3-c3ccccc3C)cc2)C1.Cl [compound 7az, hydrochloride]	human estrogen receptor α (hERα) (Homo sapiens)	nM	6.31
CCCN1CC(Oc2ccc(C(=O)c3c(-c4sccc4C)noc3-c3ccc(O)cc3)cc2)C1.Cl [compound 7an, hydrochloride]	human estrogen receptor α (hERα) (Homo sapiens)	nM	2
CC(C)N1CC(Oc2ccc(C(=O)c3c(-c4ccc(O)cc4)sc4cc(O)ccc34)cc2)C1 [compound 6e, hydrochloride]	human estrogen receptor α (hERα) (Homo sapiens)	nM	1.58
CCCN1CC(Oc2ccc(C(=O)c3c(-c4ccc(O)cc4)noc3-c3ccccc3Cl)cc2)C1	human estrogen receptor α (hERα) (Homo sapiens)	nM	3.98

* * *

# Test system: MCF-7H cells
# PROTOCOL SUMMARY: 7-day in vitro proliferation assay in tamoxifen-resistant MCF-7H breast cancer cells (methyl-3H-thymidine incorporation)
# Assay type: cell-based, human
# MEASUREMENT CONTEXT: relative potency to induce proliferation, normalized against E2 (=100 per definition), MCF-7H

COMPOUND	% E2 [%]
C#C[C@]1(O)CC[C@H]2[C@@H]3CCc4cc(O)ccc4[C@H]3CC[C@@]21C [EE, Ethynyl Estradiol]	137
C[C@]12CC[C@@H]3c4ccc(O)cc4C[C@@H](CCCCCCCCC[S+]([O-])CCCC(F)(F)C(F)(F)F)[C@H]3[C@@H]1CC[C@@H]2O (some centres unmarked) [Fulvestrant]	18.9
CC/C(=C(\c1ccccc1)c1ccc(OCCN(C)C)cc1)c1ccccc1 [Tamoxifen]	0.008
O=C(c1ccc(OCCN2CCCCC2)cc1)c1c(-c2ccc(O)cc2)sc2cc(O)ccc12 [Raloxifene]	21.1
CC/C(=C(\c1ccc(O)cc1)c1ccc(OCCN(C)C)cc1)c1ccccc1 [4OHT, 4-OH-tamoxifen]	2.3
COc1ccc(-c2sc3cc(O)ccc3c2Oc2ccc(OCCN3CCCCC3)cc2)cc1 [Arzoxifene]	99.1
CC/C(=C(/c1ccc(OCCN(C)C)cc1)c1cccc(O)c1)c1ccccc1 [Droloxifene]	5.9

* * *

# EXPERIMENTAL TARGET: human estrogen receptor α (hERα) (Homo sapiens, UniProt P03372)
# Sequence (P03372 1-595): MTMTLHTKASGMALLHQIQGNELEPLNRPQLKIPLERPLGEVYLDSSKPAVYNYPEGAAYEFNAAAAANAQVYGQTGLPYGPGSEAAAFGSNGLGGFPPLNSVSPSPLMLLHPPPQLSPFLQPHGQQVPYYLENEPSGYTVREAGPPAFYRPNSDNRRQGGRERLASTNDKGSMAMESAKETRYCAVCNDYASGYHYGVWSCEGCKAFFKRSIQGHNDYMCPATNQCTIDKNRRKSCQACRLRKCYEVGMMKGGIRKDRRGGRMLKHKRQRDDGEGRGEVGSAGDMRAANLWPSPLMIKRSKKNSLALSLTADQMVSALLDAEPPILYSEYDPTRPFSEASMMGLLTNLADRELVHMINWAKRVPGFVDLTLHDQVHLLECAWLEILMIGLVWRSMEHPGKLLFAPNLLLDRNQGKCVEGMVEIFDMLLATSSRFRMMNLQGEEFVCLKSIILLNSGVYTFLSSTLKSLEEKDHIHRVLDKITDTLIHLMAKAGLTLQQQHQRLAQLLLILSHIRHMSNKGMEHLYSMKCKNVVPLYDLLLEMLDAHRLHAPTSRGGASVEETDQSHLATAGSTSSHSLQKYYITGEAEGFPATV
# PROTOCOL SUMMARY: antagonistic activity in CHO cells co-transfected with hERα, rat oxytocin promoter and luciferase reporter gene
# Format: cell-based
# MEASUREMENT CONTEXT: antagonism of 17β-estradiol-induced transactivation, CHO-hERα-RO-LUC; read-out: ERα pIC50 (converted)
# Protocol: The antagonistic activity of compounds on the estrogen receptors was determined in an in vitro bioassay with recombinant Chinese Hamster Ovary (CHO) cells stably co-transfected with the human estrogen receptor α (hERα), the rat oxytocin promoter (RO) and the luciferase reporter gene (LUC). […]
# reported IC50; entries follow

COMPOUND	IC50 / nM
CCCN1CC(Oc2ccc(C(=O)c3c(-c4ccccc4Cl)noc3-c3cccc(O)c3)cc2)C1.Cl [compound 7ap, hydrochloride]	2
CCCN1CC(Oc2ccc(C(=O)c3c(-c4ccc(F)c(C)c4)sc4cc(O)ccc34)cc2)C1.Cl [compound 7s, hydrochloride]	5.01
COCCCN1CC(Oc2ccc(C(=O)c3c(-c4ccc(O)cc4)sc4cc(O)ccc34)cc2)C1.O=C(O)C(F)(F)F [compound 7k, 2,2,2-trifluoroacetate]	2

* * *

# EXPERIMENTAL TARGET: human estrogen receptor α (hERα) (Homo sapiens, UniProt P03372)
# PROTOCOL SUMMARY: antagonistic activity in CHO cells co-transfected with hERα, rat oxytocin promoter and luciferase reporter gene
# Format: cell-based
# MEASUREMENT CONTEXT: antagonism of 17β-estradiol-induced transactivation, CHO-hERα-RO-LUC; read-out: ERα pIC50 (converted)
Counter-ions that a name gives are not always drawn.
The threshold is 2 nM. Values of IC50 beneath it are tagged Met; values meeting or exceeding it are tagged Not met.

COMPOUND	CLASSIFICATION
Oc1ccc(-c2onc(-c3ccccc3Cl)c2-c2ccc(OC3CNC3)cc2)cc1	Not met
CCC(C)N1CC(Oc2ccc(-c3c(-c4ccccc4Cl)noc3-c3ccc(O)cc3)cc2)C1 (stereo not shown) [compound 6i, hydrochloride]	Met
C=C(c1ccc(OC2CN(CCC)C2)cc1)c1c(-c2ccccc2Cl)noc1-c1ccc(O)cc1	Met
CCCN1CC(Oc2ccc(C(=O)c3c(-c4ccccc4Cl)noc3-c3ccc(O)cc3)cc2F)C1.Cl [compound 7at, hydrochloride]	Met
CCCN1CC(Oc2ccc(C(=O)c3c(-c4cccn4C)noc3-c3ccc(O)cc3)cc2)C1.Cl [7al, hydrochloride]	Not met
CN1CC(Oc2ccc(-c3c(-c4ccc(O)cc4)sc4cc(O)ccc34)cc2)C1 [compound 6a, 2,2,2-trifluoroacetate]	Met
CCCN1CC(Oc2ccc(C(=O)c3c(-c4ccc(O)cc4)sc4cc(O)ccc34)cc2)C1.O=C(O)C(F)(F)F [compound 6d, 2,2,2-trifluoroacetate]	Met
